Readings of relative viability EC50 for the listed compounds
# System: Vero E6
# measurement-protocol: relative viability EC50 (midpoint between 100% and the lowest measured viability); higher = less toxic
# test-settings: 72 h

Below, each entry is followed by its recorded relative viability EC50 result.
compound: C=CCOc1ccccc1OCC(O)CNC(C)C (centres undefined)
result: > 10 µM
--
compound: Cc1ccc(NC(=O)c2cccc(N(C)C)c2)cc1NC(=O)c1ccc(O)cc1
result: > 10 µM
--
compound: CN1CC[C@@H](c2c(O)cc(O)c3c(=O)cc(-c4ccccc4Cl)oc23)[C@@H]1CO
result: 1.21 µM

Shift focus to the following entry.
q: GET relative viability EC50 where system = Vero E6 and item = CC1(C)O[C@@H]2C[C@H]3[C@@H]4C[C@H](F)C5=CC(=O)C=C[C@]5(C)[C@H]4[C@@H](O)C[C@]3(C)[C@]2(C(=O)CO)O1 [flunisolide]
a: > 10 µM

* * *

Below is a list of entries, each paired with its recorded cell viability value.
# Test system: U2OS
# measurement-protocol: cell viability relative to DMSO; higher = less toxic
# test-settings: 72 h; 1 nM
Give just the number in %; leave the unit off.

These solved cases illustrate the format of a correct answer.
compound: N#Cc1ccc2[nH]c(O)c(-c3ccc(CN4CCOCC4)cn3)c2c1 [AZD1080]
cell viability [%]: 95.3

compound: CN1C(=O)N(c2ccc(C#N)c(C(F)(F)F)c2)C(=O)[C@]1(CO)c1ccccc1 [GLPG0492-R-enantiomer]
cell viability [%]: 101

compound: COc1ccc(Cc2nc(O)c3c(C)nc([C@@H](CCCc4ccccc4)[C@@H](C)O)n3n2)cc1OC [BAY-60-7550]
cell viability [%]: 101

q: Answer with reported cell viability of CC(C)(C)Nc1nc(Nc2ccc(C(N)=O)cc2)cc(N)c1C#N [TC-Mps1-12]
a: 93.6

q: Supply recorded cell viability for C[C@]12C=CC(=O)C=C1CC[C@@H]1[C@@H]2C(=O)C[C@@]2(C)[C@H]1CC[C@]2(O)C(=O)CO [prednisone] here.
a: 98.9

q: Give me measured cell viability, please, for this compound: CCC(CC)COC(=O)[C@H](C)N[P@](=O)(OC[C@H]1O[C@@](C#N)(c2ccc3c(N)ncnn23)[C@H](O)[C@@H]1O)Oc1ccccc1 [Remdesivir]
a: 98

q: Let me know recorded cell viability for CCOC(=O)N1CSC[C@H]1C(=O)O [telmesteine] , thanks.
a: 97.1

q: Please give the documented cell viability of Cc1c(OCC(F)(F)F)ccnc1C[S+]([O-])c1nc2ccccc2[nH]1 (stereo not drawn) [lansoprazole]
a: 94.8

* * *

# System: U2OS
# measurement-protocol: cell viability relative to DMSO; higher = less toxic
# test-settings: 72 h; 1000 nM
Property: cell viability; scope: individual molecules
Numbers only; they are read as %.

q: For the molecule CN[C@H](CC(C)C)C(=O)N[C@H]1C(=O)N[C@@H](CC(N)=O)C(=O)N[C@H]2C(=O)N[C@H]3C(=O)N[C@H](C(=O)N[C@H](C(=O)O)c4cc(O)cc(O)c4-c4cc3ccc4O)[C@H](O[C@H]3C[C@](C)(N)[C@@H](O)[C@H](C)O3)c3ccc(c(Cl)c3)Oc3cc2cc(c3O[C@@H]2O[C@H](CO)[C@@H](O)[C@H](O)[C@H]2O[C@H]2C[C@](C)(NCc3ccc(-c4ccc(Cl)cc4)cc3)[C@@H](O)[C@H](C)O2)Oc2ccc(cc2Cl)[C@H]1O [oritavancin] , give its reported cell viability.
a: 96.5

q: Check the records and state cell viability for CC(=O)OCC(=O)[C@@]1(O)CC[C@H]2[C@@H]3CCC4=CC(=O)C=C[C@]4(C)[C@H]3[C@@H](O)C[C@@]21C [prednisolone-acetate]
a: 101

q: Identify measured cell viability corresponding to c1ccc2c(Cc3c[nH]c4ccccc34)c[nH]c2c1 [3,3'-diindolylmethane]
a: 104

q: Determine from records and report cell viability for CC(C)c1ccc(-c2cc(=O)c3ccccc3o2)cc1 [MN-64]
a: 95.2

q: Return value of cell viability for input O=C(O)Cn1c2c(c3cc(F)ccc31)CN(C(=O)c1cccc3ccccc13)CC2 [setipiprant] , no commentary.
a: 104

q: Return the recorded cell viability value; entry: O=C(CCCCCCC(=O)Nc1ccccc1)NO [vorinostat]
a: 79.5

q: Note down cell viability recorded for CC(C)[C@H](CO)Nc1nc(Nc2cc(N)cc(Cl)c2)c2ncn(C(C)C)c2n1 [aminopurvalanol-a]
a: 96.5

q: Look up and state reported cell viability for O=C(NNc1nc2cc(F)ccc2n2cccc12)c1cnccn1 [SC-144]
a: 40.1

q: Dear colleague, please send me the reported cell viability for O=C(O)/C=C/c1ccc(-c2ccc(O)c(C34CC5CC(CC(C5)C3)C4)c2)cc1 [adarotene] when you can.
a: 14.5

q: Name the recorded cell viability of the item CCc1nn(CCCN2CCN(c3cccc(Cl)c3)CC2)c(=O)n1CCOc1ccccc1 [nefazodone] in your answer.
a: 99
